Reference source: paper PMC7826789

- Tested on: TRPM6
- testParameters: Compound Concentration (nM):1000;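 further: KINOMEscan scanMAX binding as percent activity remaining versus control; lower means stronger binding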
Could you please report measured Percent Control for the items listed next?
Give just the numeric value; % need not be written.

Problem: Indicate the recorded Percent Control value for this compound: NS(=O)(=O)c1ccc(N/N=C2\C(=O)Nc3ccc(Cl)cc32)cc1 [GW280670X]
Solution: 100

Problem: Indicate the recorded Percent Control value for this compound: COc1cccc(-n2ncc3c(N/N=C/c4ccncc4)ncnc32)c1 [GW784752X]
Solution: 89

Problem: Indicate the recorded Percent Control value for this compound: COc1cc2ncnc(Nc3ccc4c(cnn4Cc4ccccc4)c3)c2cc1OC.Cl [GW282449A]
Solution: 87

Problem: Indicate the recorded Percent Control value for this compound: Cl.O=C(Nc1ccc(Oc2ccc3[nH]c(NC(=O)c4ccccc4)nc3c2)cc1)Nc1cc(C(F)(F)F)ccc1F [GW709042A]
Solution: 100

Problem: Indicate the recorded Percent Control value for this compound: COc1cc(C=NNc2ncnc3c2cnn3-c2ccccc2)ccc1O [GW513184X]
Solution: 100

Problem: Indicate the recorded Percent Control value for this compound: COc1ccccc1-c1cc(/C=C2\C(=O)Nc3ncc(Br)cc32)cc(Br)c1O [GW442130X]
Solution: 100

Problem: Indicate the recorded Percent Control value for this compound: Cc1cc(O)cc(C)c1/C=C/c1cncc(C(N)=O)c1 [GW435821X]
Solution: 100

Problem: Indicate the recorded Percent Control value for this compound: "COc1cc(C)c(N(C)C(=O)CN(C)C)cc1Nc1nc(Nc2cccc(F)c2C(N)=O)c2cc[nH]c2n1"
Solution: 100

Problem: Indicate the recorded Percent Control value for this compound: COc1ccc(COc2ccc(Cc3cnc(N)nc3N)cc2OC)cc1 [GW632580X]
Solution: 89

Problem: Indicate the recorded Percent Control value for this compound: Cl.O=C(O[C@H]1CN[C@H](C#Cc2cc3ncnc(Nc4ccc5c(cnn5Cc5ccccc5)c4)c3s2)C1)N1CCOCC1 [GSK200398A]
Solution: 96

Problem: Indicate the recorded Percent Control value for this compound: Nc1ncnc2occ(-c3ccc(NC(=O)Nc4cc(C(F)(F)F)ccc4F)cc3)c12 [GW770249X]
Solution: 100

Problem: Indicate the recorded Percent Control value for this compound: COc1cc2ncn(-c3cc(O[C@H](C)c4ccccc4Cl)c(C(N)=O)s3)c2cc1OC [GSK237701A]
Solution: 89

Problem: Indicate the recorded Percent Control value for this compound: "NS(=O)(=O)c1ccc(N/N=C2\C(=O)Nc3ccc(-c4cnco4)cc32)cc1"
Solution: 89

Problem: Indicate the recorded Percent Control value for this compound: COc1cc(/C=N/Nc2ncnc3[nH]ncc23)ccc1O [GW578748X]
Solution: 95

----------
Could you please report measured Percent Control for the items listed next?
- Test system: CSK
- testParameters: Compound Concentration (nM):1000
Give just the numeric value; % need not be written.

Problem: Write down the reported Percent Control (system: CSK) of COc1cc(/C=N/Nc2ncnc3[nH]ncc23)ccc1O [GW578748X]
Solution: 67

Problem: Write down the reported Percent Control (system: CSK) of CN1CCN(C(=O)c2ccc(NC(=O)Nc3ccc(N(C)c4ccnc(Nc5ccc(CS(C)(=O)=O)cc5)n4)cc3)cc2)CC1.Cl [GW830263A]
Solution: 62

Problem: Write down the reported Percent Control (system: CSK) of CC1=C(C(=O)Nc2ccc3[nH]ncc3c2)C(c2ccc3ccccc3c2)CC(=O)N1 (stereo not drawn) [GSK270822A]
Solution: 95

Problem: Write down the reported Percent Control (system: CSK) of NS(=O)(=O)c1ccc(Nc2ncc(-c3ccccc3)o2)cc1 [GW572399X]
Solution: 100

Problem: Write down the reported Percent Control (system: CSK) of C[C@@H](Oc1cc(-n2cnc3ccc(OC4CCN(C)CC4)cc32)sc1C(N)=O)c1ccccc1Cl [GSK579289A]
Solution: 76

Problem: Write down the reported Percent Control (system: CSK) of COc1ccc(COc2ccc(Cc3cnc(N)nc3N)cc2OC)cc1 [GW632580X]
Solution: 87
